Provide the reported shrunken log2 fold change of each item.
Test system: Escherichia coli TOP10;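 further: peptides expressed intracellularly from a pBAD plasmid library in pooled LB shake-flask culture, induced with 0.3% L-arabinose, DNA abundance read by NGS, three biological replicates, DESeq2 with apeglm shrinkage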
methodDescription: shrunken log2 fold change of peptide-encoding DNA abundance (4.5 h post-induction vs induction); higher = less antimicrobial activity (less host growth inhibition)
studyConditions: time post-induction: 4.5 h; library: site-saturation at positions 5, 18, 19, 20

Any idea what its shrunken log2 fold change is? The sequence is RRIRCRPPRLPRPRPRPHHIPRP
-0.88

Quick check: shrunken log2 fold change of RRIRLRPPRLPRPRPRPHVRPRP ?
0.0652

// shrunken log2 fold change lookup, key: RRIRHRPPRLPRPRPRPAPQPRP
0.588

May I ask what shrunken log2 fold change has been recorded for RRIRLRPPRLPRPRPRPHWAPRP ?
-0.177

Item under review: RRIRHRPPRLPRPRPRPRIYPRP . Reported shrunken log2 fold change?
-0.584

I'd like to know its shrunken log2 fold change. The sequence in question is RRIRARPPRLPRPRPRPFAMPRP
0.236

Quick one: shrunken log2 fold change of RRIRNRPPRLPRPRPRPTARPRP ?
0.198

Form field: reported shrunken log2 fold change of RRIRFRPPRLPRPRPRPGQCPRP
-0.114

Give its shrunken log2 fold change value. Item: RRIRCRPPRLPRPRPRPVNAPRP
-0.0831

// shrunken log2 fold change lookup, key: RRIRWRPPRLPRPRPRPINQPRP
-0.0913
